Assay: Cytostatic activity against human dermal fibroblasts assessed as growth inhibition at 64 to 1000 nM after 72 hrs by coulter counter analysis
Conditions: skin fibroblast, 1 µM

smiles-str	growth inhibition (GI)
CC(=O)O[C@H]1C(=O)[C@@]2(C)[C@H]([C@H](OC(=O)c3ccccc3)[C@]3(O)C[C@H](OC(=O)[C@H](OC(=O)CCC(=O)NCc4ccc(CN5C(=O)[C@H]6CC(=O)N[C@@H](CCCNC(=N)N)C(=O)NCC(=O)N[C@@H](CC(=O)O)C(=O)NC[C@H]5C(=O)N6)cc4)[C@@H](NC(=O)c4ccccc4)c4ccccc4)C(C)=C1C3(C)C)[C@]1(OC(C)=O)CO[C@@H]1C[C@@H]2O	Non-toxic
N=C(N)NCCC[C@@H]1NC(=O)C[C@H]2NC(=O)[C@H](CNC(=O)[C@H](CC(=O)O)NC(=O)CNC1=O)N(Cc1ccc(CN)cc1)C2=O.O=C(O)C(F)(F)F	Non-toxic

----------
Biological target: Integrin alpha-V/beta-5 (Homo sapiens, UniProt P06756+P18084)
Sequence (P06756 31-889 limits assumed): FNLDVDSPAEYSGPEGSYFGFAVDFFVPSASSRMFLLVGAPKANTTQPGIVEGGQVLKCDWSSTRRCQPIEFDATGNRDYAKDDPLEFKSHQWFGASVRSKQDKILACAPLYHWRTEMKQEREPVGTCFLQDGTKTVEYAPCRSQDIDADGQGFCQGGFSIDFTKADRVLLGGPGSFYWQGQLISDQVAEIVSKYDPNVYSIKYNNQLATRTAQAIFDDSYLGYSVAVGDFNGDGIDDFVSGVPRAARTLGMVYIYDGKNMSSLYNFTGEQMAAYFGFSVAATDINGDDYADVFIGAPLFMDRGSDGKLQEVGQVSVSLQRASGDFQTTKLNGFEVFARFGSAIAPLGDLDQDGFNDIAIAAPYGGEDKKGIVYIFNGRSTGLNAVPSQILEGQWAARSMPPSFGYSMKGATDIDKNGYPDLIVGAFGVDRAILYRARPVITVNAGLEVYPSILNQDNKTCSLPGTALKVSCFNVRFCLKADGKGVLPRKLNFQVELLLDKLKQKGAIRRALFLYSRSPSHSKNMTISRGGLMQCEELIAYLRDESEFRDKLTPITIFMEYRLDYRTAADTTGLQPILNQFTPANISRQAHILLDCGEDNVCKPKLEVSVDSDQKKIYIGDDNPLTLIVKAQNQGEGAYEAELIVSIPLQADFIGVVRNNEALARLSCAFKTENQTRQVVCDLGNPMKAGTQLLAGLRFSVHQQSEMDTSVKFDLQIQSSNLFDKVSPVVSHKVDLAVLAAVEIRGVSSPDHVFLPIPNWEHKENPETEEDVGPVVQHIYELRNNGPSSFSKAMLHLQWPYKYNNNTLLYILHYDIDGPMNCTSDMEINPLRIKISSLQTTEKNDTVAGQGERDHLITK
Sequence (P06756 891-1048 limits assumed): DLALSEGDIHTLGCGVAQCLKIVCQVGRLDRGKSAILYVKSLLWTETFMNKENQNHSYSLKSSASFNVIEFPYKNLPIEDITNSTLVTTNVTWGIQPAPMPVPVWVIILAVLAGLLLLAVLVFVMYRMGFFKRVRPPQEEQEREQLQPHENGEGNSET
Sequence (P18084 24-799 limits assumed): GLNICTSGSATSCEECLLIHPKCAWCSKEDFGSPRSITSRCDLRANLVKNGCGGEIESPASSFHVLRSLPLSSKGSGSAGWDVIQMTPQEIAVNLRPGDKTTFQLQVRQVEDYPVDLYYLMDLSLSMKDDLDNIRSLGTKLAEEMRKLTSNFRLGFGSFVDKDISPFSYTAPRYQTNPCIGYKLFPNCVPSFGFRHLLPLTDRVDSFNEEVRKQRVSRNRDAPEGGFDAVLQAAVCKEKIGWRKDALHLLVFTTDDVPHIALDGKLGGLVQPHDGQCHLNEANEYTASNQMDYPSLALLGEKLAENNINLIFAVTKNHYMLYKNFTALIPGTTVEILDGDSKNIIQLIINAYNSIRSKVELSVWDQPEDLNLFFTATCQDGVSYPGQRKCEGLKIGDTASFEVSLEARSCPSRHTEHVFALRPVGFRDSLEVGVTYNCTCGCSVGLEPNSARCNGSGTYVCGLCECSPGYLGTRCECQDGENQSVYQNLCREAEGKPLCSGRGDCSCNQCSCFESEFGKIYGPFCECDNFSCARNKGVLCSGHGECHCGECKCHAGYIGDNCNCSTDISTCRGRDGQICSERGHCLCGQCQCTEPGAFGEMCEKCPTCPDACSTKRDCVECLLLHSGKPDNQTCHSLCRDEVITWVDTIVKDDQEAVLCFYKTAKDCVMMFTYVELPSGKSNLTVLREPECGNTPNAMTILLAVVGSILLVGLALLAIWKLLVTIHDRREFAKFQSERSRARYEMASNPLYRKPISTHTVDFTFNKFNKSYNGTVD
Assay: Competitive inhibition of biotinylated vitronectin to integrin alphaVbeta5 receptor after 3 hrs by microplate reader analysis
// values below are reported IC50
Answer with a number only, understood to be in nM.

smiles-str	units-of-measure	IC50
CC(=O)O[C@H]1C(=O)[C@@]2(C)[C@H]([C@H](OC(=O)c3ccccc3)[C@]3(O)C[C@H](OC(=O)[C@H](OC(=O)CCC(=O)NCc4ccc(CN5C(=O)[C@H]6CNC(=O)[C@H](CC(=O)O)NC(=O)CNC(=O)[C@H](CCCN=C(N)N)NC(=O)C[C@H]5C(=O)N6)cc4)[C@@H](NC(=O)c4ccccc4)c4ccccc4)C(C)=C1C3(C)C)[C@]1(OC(C)=O)CO[C@@H]1C[C@@H]2O	nM	76

// query Entry CC(=O)O[C@H]1C(=O)[C@@]2(C)[C@H]([C@H](OC(=O)c3ccccc3)[C@]3(O)C[C@H](OC(=O)[C@H](OC(=O)CCC(=O)NCc4ccc(CN5C(=O)[C@H]6CC(=O)N[C@@H](CCCNC(=N)N)C(=O)NCC(=O)N[C@@H](CC(=O)O)C(=O)NC[C@H]5C(=O)N6)cc4)[C@@H](NC(=O)c4ccccc4)c4ccccc4)C(C)=C1C3(C)C)[C@]1(OC(C)=O)CO[C@@H]1C[C@@H]2O needs its IC50 filled in; supply it.
// result 219

----------
// values below are reported pIC50
Molecular target: Integrin alpha-V/beta-5 (Homo sapiens, UniProt P06756+P18084)
Test: Competitive inhibition of biotinylated vitronectin to integrin alphaVbeta5 receptor after 3 hrs by microplate reader analysis
Please note pIC50 is a logarithmic value: minus log10 of concentration in mol/L. Answer with that number alone.

smiles-str	experimental-system	pIC50
NC(N)=NCCC[C@@H]1NC(=O)C[C@H]2C(=O)N[C@H](CNC(=O)[C@H](CC(=O)O)NC(=O)CNC1=O)C(=O)N2Cc1ccc(CNC(=O)CCC(=O)O)cc1	Integrin alpha-V/beta-5 (Homo sapiens, UniProt P06756+P18084)	7.12
N=C(N)NCCC[C@@H]1NC(=O)C[C@@H]2C(=O)N[C@@H](CNC(=O)[C@H](CC(=O)O)NC(=O)CNC1=O)C(=O)N2Cc1ccccc1	Integrin alpha-V/beta-5 (Homo sapiens, UniProt P06756+P18084)	7.10

# context switch: different molecule, same pIC50
// query Entry CC(=O)O[C@H]1C(=O)[C@@]2(C)[C@H]([C@H](OC(=O)c3ccccc3)[C@]3(O)C[C@H](OC(=O)[C@H](OC(=O)CCC(=O)NCc4ccc(CN5C(=O)[C@@H]6CC(=O)N[C@@H](CCCNC(=N)N)C(=O)NCC(=O)N[C@@H](CC(=O)O)C(=O)NC[C@@H]5C(=O)N6)cc4)[C@@H](NC(=O)c4ccccc4)c4ccccc4)C(C)=C1C3(C)C)[C@]1(OC(C)=O)CO[C@@H]1C[C@@H]2O needs its pIC50 filled in; supply it.
// result 6.29
